assay: Absolute bioavailability in lean C57BL/6J mouse at 100 mg/kg, ip by LC-MS analysis; format: ADME, organism-based; conditions: in vivo
test_readout: bioavailability (%)
Give bare numbers, in %.

Input line: Check the records and state bioavailability for `CC(=O)N[C@@H](CCC(=O)O)C(=O)N[C@@H](Cc1c[nH]c2ccccc12)C(=O)N[C@@H](CCCNC(=N)N)C(=O)N[C@@H](Cc1ccccc1)C(=O)N[C@H]1CC(=O)NC[C@@H](C(=O)N[C@@H](CC(C)C)C(=O)N[C@@H](Cc2ccc(O)cc2)C(=O)N[C@@H](CC(C)C)C(=O)N[C@H](C(=O)N[C@@H](CS)C(=O)NCC(N)=O)C(C)C)NC(=O)[C@H](CCC(=O)O)NC(=O)[C@@H]2CCCN2C(=O)[C@H]2CCCN2C(=O)CNC1=O`
Output line: 83.5
